# System: CHLA-90 neuroblastoma cell line
# PROTOCOL DESCRIPTION: DIMSCAN in vitro testing, 96 h
# Assay type: cell-based
# RUN PARAMETERS: Neuroblastoma cell, 96 h, read-out: Relative IC50
ASSAY READOUT: IC50 (nM)
Kindly answer with a numeric value in nM, unit omitted.

Name the reported IC50 value associated with the compound COc1cc(Nc2ncc3c(n2)-c2ccc(Cl)cc2C(c2c(F)cccc2OC)=NC3)ccc1C(=O)O 48

====

# Tested on: Ewing sarcoma (n = 11) and neuroblastoma (n = 17) cell lines
# PROTOCOL DESCRIPTION: DIMSCAN in vitro testing, 96 h, whole extended panel
# Assay type: cell-based
# RUN PARAMETERS: read-out: Relative IC50, maximum
ASSAY READOUT: IC50 (µM)
Form entry: value (µM) — number only.

So what's the measured IC50 for this one? COc1cc(Nc2ncc3c(n2)-c2ccc(Cl)cc2C(c2c(F)cccc2OC)=NC3)ccc1C(=O)O [MLN8237] 10
